# SYSTEM_NAME: hERG (Homo sapiens, UniProt Q12809)
# Sequence (Q12809 whole entry): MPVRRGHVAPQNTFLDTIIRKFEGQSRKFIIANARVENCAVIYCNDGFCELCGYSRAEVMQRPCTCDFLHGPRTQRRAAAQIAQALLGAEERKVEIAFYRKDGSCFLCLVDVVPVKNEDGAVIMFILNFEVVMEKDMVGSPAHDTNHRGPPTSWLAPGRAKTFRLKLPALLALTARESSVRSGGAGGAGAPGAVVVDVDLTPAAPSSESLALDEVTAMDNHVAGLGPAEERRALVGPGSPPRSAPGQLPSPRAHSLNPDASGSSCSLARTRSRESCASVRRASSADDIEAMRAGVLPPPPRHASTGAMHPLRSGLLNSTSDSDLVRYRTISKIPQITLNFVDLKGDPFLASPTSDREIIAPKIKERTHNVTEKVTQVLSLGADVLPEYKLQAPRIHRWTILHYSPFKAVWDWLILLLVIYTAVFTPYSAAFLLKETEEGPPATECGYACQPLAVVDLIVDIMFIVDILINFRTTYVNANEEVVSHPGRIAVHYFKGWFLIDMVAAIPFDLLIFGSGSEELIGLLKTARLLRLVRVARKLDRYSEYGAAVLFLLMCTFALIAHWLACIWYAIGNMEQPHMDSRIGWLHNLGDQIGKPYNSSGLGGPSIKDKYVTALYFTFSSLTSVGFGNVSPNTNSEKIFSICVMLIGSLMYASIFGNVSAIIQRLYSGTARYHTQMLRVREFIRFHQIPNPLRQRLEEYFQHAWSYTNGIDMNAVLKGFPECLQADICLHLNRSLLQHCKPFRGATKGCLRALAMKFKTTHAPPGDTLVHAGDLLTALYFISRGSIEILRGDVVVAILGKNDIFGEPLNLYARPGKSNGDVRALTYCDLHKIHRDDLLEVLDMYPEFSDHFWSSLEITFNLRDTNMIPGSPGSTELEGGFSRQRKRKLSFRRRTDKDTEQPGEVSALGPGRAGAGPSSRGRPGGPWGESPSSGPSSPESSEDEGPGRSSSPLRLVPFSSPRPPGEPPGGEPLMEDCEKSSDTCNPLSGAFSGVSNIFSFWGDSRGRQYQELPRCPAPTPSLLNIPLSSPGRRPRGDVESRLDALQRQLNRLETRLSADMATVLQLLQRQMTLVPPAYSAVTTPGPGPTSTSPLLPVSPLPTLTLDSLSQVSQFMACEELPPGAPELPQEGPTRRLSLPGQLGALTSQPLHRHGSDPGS
# TEST: Inhibition of hERG (unknown origin) at 30 uM by patch clamp assay relative to control
READOUT_TYPE: inhibition at 30 µM (%)
Answers are plain numbers, in %.

stdin: What value of measured inhibition at 30 µM is listed for CNC(=O)OC(C(=O)O)c1ccc(F)c(-c2ccc(OC)c(C(=O)N[C@H]3[C@@H](C(=O)Nc4ccc(F)c(C(F)(F)F)c4)[C@H]4CC[C@@H]3/C4=C\C3CC3)c2)c1 (stereo in doubt; 39) ?
stdout: 7

---

# TEST: Microsomal stability in human liver microsomes assessed as half life
# Assay type: ADME, Microsome
READOUT_TYPE: half-life

stdin: What value of measured half-life is listed for CNC(=O)OC(C(=O)O)c1ccc(F)c(-c2ccc(OC)c(C(=O)N[C@H]3[C@@H](C(=O)Nc4ccc(F)c(C(F)(F)F)c4)[C@H]4CC[C@@H]3/C4=C\C3CC3)c2)c1 (stereo in doubt; 39) ?
stdout: > 2 h
